Molecular target: Serine/threonine-protein kinase pim-1 (Homo sapiens);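 also: reported figures are mean percent inhibition of PIM1 kinase activity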
Settings: at 1 µM
I'd be grateful if you could share measured inhibition for these entries.
Write the number in % without appending the unit.

Quick check: inhibition on Serine/threonine-protein kinase pim-1 (Homo sapiens), item `CS(=O)(=O)CCNCc1ccc(-c2ccc3ncnc(Nc4ccc(OCc5cccc(F)c5)c(C(F)(F)F)c4)c3c2)o1` ?
1.08

Quick check: inhibition on Serine/threonine-protein kinase pim-1 (Homo sapiens), item `COc1cc(C=NNc2ncnc3c2cnn3-c2ccccc2)ccc1O` ?
1.57

Quick check: inhibition on Serine/threonine-protein kinase pim-1 (Homo sapiens), item `Cc1cccc(-c2n[nH]cc2-c2ccc3ncccc3n2)n1` ?
0.02

Quick check: inhibition on Serine/threonine-protein kinase pim-1 (Homo sapiens), item `CCn1c(-c2nonc2N)nc2cncc(C(=O)N3CC[C@H](N)C3)c21` ?
94.2

Quick check: inhibition on Serine/threonine-protein kinase pim-1 (Homo sapiens), item `Cc1ccc(NC(=O)c2ccnc(N3CCCC3)c2)cc1-c1ccc(C(=O)NCC2CC2)cc1` ?
1.92

Quick check: inhibition on Serine/threonine-protein kinase pim-1 (Homo sapiens), item `CCc1cccc(NC(=O)Nc2ccc(Oc3ccc4nc(NC(=O)OC)[nH]c4c3)cc2)c1` ?
0.49

Quick check: inhibition on Serine/threonine-protein kinase pim-1 (Homo sapiens), item `COc1ccccc1Nc1ncc(-c2ccccc2)o1` ?
1.55

Quick check: inhibition on Serine/threonine-protein kinase pim-1 (Homo sapiens), item `Cc1nn(C)c2cc(N(C)c3ccnc(Nc4cccc(S(N)(=O)=O)c4)n3)ccc12` ?
0.82

Quick check: inhibition on Serine/threonine-protein kinase pim-1 (Homo sapiens), item `CCn1c(-c2nonc2N)nc2cnc(Oc3cccc(NC(=O)c4ccc(OCCN5CCOCC5)cc4)c3)cc21` ?
10.4

Quick check: inhibition on Serine/threonine-protein kinase pim-1 (Homo sapiens), item `O=C1NC(=O)C(c2ccc(Cl)cc2)=C1Nc1ccc(Cl)c(C(=O)O)c1` ?
-0.5

Quick check: inhibition on Serine/threonine-protein kinase pim-1 (Homo sapiens), item `Fc1cccc(COc2ccc(Nc3ncnc4sc(-c5cccs5)cc34)cc2Cl)c1` ?
1.29

Quick check: inhibition on Serine/threonine-protein kinase pim-1 (Homo sapiens), item `CCCN1CCC(Oc2cc(Nc3nc(Nc4cccc(F)c4C(N)=O)c4cc[nH]c4n3)c(OC)cc2Cl)CC1` ?
25.4

Quick check: inhibition on Serine/threonine-protein kinase pim-1 (Homo sapiens), item `Cc1ccc(C(=O)NC2CCCCC2)cc1-c1ccc(C(=O)NCC2CC2)cc1` ?
0.56

Quick check: inhibition on Serine/threonine-protein kinase pim-1 (Homo sapiens), item `COc1cc2ncn(-c3cc(OCc4ccccc4Cl)c(C(N)=O)s3)c2cc1OC` ?
2.71

Quick check: inhibition on Serine/threonine-protein kinase pim-1 (Homo sapiens), item `Cc1cc(O)cc(C)c1/C=C/c1cncc(-c2nn[nH]n2)c1` ?
1.59

Quick check: inhibition on Serine/threonine-protein kinase pim-1 (Homo sapiens), item `COc1cc2ncn(-c3cc(O[C@H](C)c4ccccc4Cl)c(C(N)=O)s3)c2cc1OC` ?
3.93

Quick check: inhibition on Serine/threonine-protein kinase pim-1 (Homo sapiens), item `COc1cccc(-n2ncc3c(N/N=C/c4cccc(F)c4)ncnc32)c1` ?
0.52

Quick check: inhibition on Serine/threonine-protein kinase pim-1 (Homo sapiens), item `COc1ccc(-c2ccncc2)cc1C(N)=O` ?
2.13

Quick check: inhibition on Serine/threonine-protein kinase pim-1 (Homo sapiens), item `NCc1ccc(-c2nc(-c3ccc(Cl)c(O)c3)c(-c3ccncc3)[nH]2)cc1` ?
0.18

Quick check: inhibition on Serine/threonine-protein kinase pim-1 (Homo sapiens), item `[O-][S+]1CCN(Cc2ccc(-c3ccc4ncnc(Nc5ccc(OCc6ccccc6)c(F)c5)c4c3)o2)CC1` ?
0.1

Quick check: inhibition on Serine/threonine-protein kinase pim-1 (Homo sapiens), item CC1=C(C(=O)Nc2ccc3[nH]ncc3c2)C(c2ccc(Cl)c(Cl)c2)CC(=O)N1 (configuration not stated) ?
0.22

Quick check: inhibition on Serine/threonine-protein kinase pim-1 (Homo sapiens), item `CC(C)=Cc1cccc2c1/C(=N/Nc1ccc(S(N)(=O)=O)cc1)C(=O)N2` ?
1.77

Quick check: inhibition on Serine/threonine-protein kinase pim-1 (Homo sapiens), item `CNC(=O)c1cncc(/C=C/c2c(Cl)cccc2Cl)c1` ?
1.79

Quick check: inhibition on Serine/threonine-protein kinase pim-1 (Homo sapiens), item `CCn1c(-c2nonc2N)nc2c(C#CC(C)(C)O)nc(OC[C@@H](N)c3ccccc3)cc21` ?
3.59

Quick check: inhibition on Serine/threonine-protein kinase pim-1 (Homo sapiens), item `Cn1cc(C=C2C(=O)Nc3cccnc32)c2ccccc21` ?
10.4

Quick check: inhibition on Serine/threonine-protein kinase pim-1 (Homo sapiens), item `COc1cc2ncn(-c3cc(O[C@@H](C)c4ccccc4Cl)c(C(N)=O)s3)c2cc1OC` ?
1.8

Quick check: inhibition on Serine/threonine-protein kinase pim-1 (Homo sapiens), item COc1ccc2cc(-c3c(-c4ccncc4)nc(-c4ccc([S+](C)[O-])cc4)n3C)ccc2c1 (configuration not stated) ?
0.54
